Provide the recorded protein stability index for the entries that follow.
Protocol: protein stability index of a GFP-peptide fusion (yeast GPS) (PSI 1-4); higher = more stable; sorted into four equal gates, so the index is relative within each strain
Test Conditions: doa10∆
Answers are plain numbers.

Worked cases, protein stability index given:
SGNTNGAGSAFGFSSSG [YOR098C/NUP1] ... 3.25
LCKTKMVCETDVPSEDD [RPO21] ... 2.99
SHKTTKEDTVSWFKQKY [RPL11A] ... 1.8

Could you tell me protein stability index for each of these sequences? They are listed below.
1. CISLGSTKLSRPFDSFG [ITC1]
2. EKSPDPTIRSNAVLGLG [YCS4]
3. IPAAGNNRSVSMQTIAE [SRB5]
4. GMIYNKLFVSKEHAPYT [FAS2]

Out:
1: 3.06; 2: 2.38; 3: 3.09; 4: 3.12

###

Protocol: protein stability index of a GFP-peptide fusion (yeast GPS) (PSI 1-4); higher = more stable; sorted into four equal gates, so the index is relative within each strain
Test Conditions: san1∆
Provide the recorded protein stability index for the entries that follow.
One number for each entry.

Worked cases, protein stability index given:
ENSAVAAKEGLALSSNI [COR1] ... 2.49
KEISTRVFNAKDTTGPK [YCS4] ... 3.21
GVAHLLNRFNFQNTNTR [QCR2] ... 2.43
RVNLSENTPEPDLPALE [SMC4] ... 3.1
IPTNPVDNENNKPAIKE [SWI3] ... 2.89
DLNHVTEELQTQYATSQ [SMC2] ... 3.16
NGNKDSSFNFNKNLPFV [SWI1] ... 3.28
GSQILSGVMDKSVLGDG [RPO31] ... 3.41
ESQLQMDRTSLRKQYSA [SMC3] ... 2.75
ESRKAFFLGYMINRLLL [RPB2] ... 1.12

Could you tell me protein stability index for each of these sequences? They are listed below.
1. LKFVKVRVRTTKIPQIG [RPB2]
2. EVAQLGSLACDTADEAK [RPB4]
3. EIKKMIITNINAIFLSS [YCG1]
4. FNAPATGNGTTTTSNTS [YOR098C/NUP1]
5. HLGCVPIGEAGDFGGWF [RIP1]

Out:
[2.85, 3.28, 1.8, 2.8, 2.7]

###

Protocol: protein stability index of a GFP-peptide fusion (yeast GPS) (PSI 1-4); higher = more stable; sorted into four equal gates, so the index is relative within each strain
Test Conditions: doa10∆
Please enter 1 where protein stability index is greater than or equal to 3, and -1 where it is lower.

Examples from the recorded data:
GSEIAISSLGYRSHIFA [SWI3] ... -1
INKIVEILTNQQRGITY [YGR119C/NUP57] ... -1
LREFRITHNTNITDNLF [GRR1] ... -1
PTQTVAELDLMSGILHC [RPN6] ... -1
KNEKLKFQETLLRQKIE [ISW2] ... -1

In: Check the entry QPMISPDNSIFGDTKSE [SWI3] : does protein stability index equal or exceed 3?
Out: 1

In: Check the entry GSKLEDMSKILVDQGFN [RET1] : does protein stability index equal or exceed 3?
Out: 1

In: Check the entry GAETDELSMIMEHFSQQ [RPS12] : does protein stability index equal or exceed 3?
Out: -1

In: Check the entry EQTCVKLLDSGCENPAD [SRP72] : does protein stability index equal or exceed 3?
Out: 1

###

Protocol: protein stability index of a GFP-peptide fusion (yeast GPS) (PSI 1-4); higher = more stable; sorted into four equal gates, so the index is relative within each strain
Test Conditions: pdr5∆
Please enter true where protein stability index is greater than or equal to 3, and false where it is lower.

Examples from the recorded data:
QLDEFKNKYLKDVLAQT [SWP82] ... false
RMLSSILDINVSSSKNK [SWP82] ... false
TLYIGNTANGRPPVKAI [ECM29] ... false
LIKDNSAMVTTAAAADI [SRB2] ... false

In: Check the entry IFFNIPLVAHLGLYVGV [YJL039C/NUP192] : does protein stability index equal or exceed 3?
Out: false

In: Check the entry SVYGLDDISRQVARTNL [ROX3] : does protein stability index equal or exceed 3?
Out: false

###

Protocol: protein stability index of a GFP-peptide fusion (yeast GPS) (PSI 1-4); higher = more stable; sorted into four equal gates, so the index is relative within each strain
Test Conditions: ubr1∆
Result Type: protein stability index
Numbers only.

Worked cases, protein stability index given:
IVGKKIQEFLVVIEKRR [GRR1] ... 3.12
TVWSANFEYDLSEYDAI [YOR098C/NUP1] ... 3.06
KLNQKYDIVKFLTVSKL [GRR1] ... 2.04

Could you tell me protein stability index for each of these sequences? They are listed below.
1. ELEMIGGTNEDDFTDAI [YCS4]
2. KFNNGVVIAADTRSTQG [PUP1]
3. LFHSCTRIQYVDFACCT [GRR1]
4. IQKEEEPENNTVIEGVK [SWI3]

Out:
3.7
2.7
2.21
3.25

Could you tell me protein stability index for each of these sequences? They are listed below.
1. LVFCKHITSVPISAVLR [GRR1]
2. SCGYPSAKTRSHNWAAK [RPL37B]
3. GQAIVVHPDYLYGAITE [FAS2]
4. DQSNVQYYLSVLNQQLP [BRR2]
5. EDNKYAIAGNSTTNSDV [RGR1]
6. KRRFGELMDRTGLKLYS [RPP1]

Out:
1: 1.71; 2: 2.91; 3: 1.79; 4: 3.03; 5: 2.93; 6: 2.45

###

Protocol: protein stability index of a GFP-peptide fusion (yeast GPS) (PSI 1-4); higher = more stable; sorted into four equal gates, so the index is relative within each strain
Test Conditions: doa10∆
Recorded protein stability index determines the label; the label ranges are category 1 (below 2), category 2 (2 to below 3), category 3 (3 or more)

FEGNALIRRLVRVGVLS [RPS9A] ... category 2
TGIFMAMHYSSNIELAF [COB] ... category 1
VFKLSTNLISKISLLRP [SWP82] ... category 2
KDGEIMLWNLAAKKAMY [ASC1] ... category 2
EGLDELPKIIQLQGPQW [SOH1] ... category 3
LLDVKLAIDNMYILGMC [YCG1] ... category 1
TYEMRIHKRYIDLEAPV [RPS20] ... category 2
TKLIISGQLNFEIDGDV [PCI8] ... category 2
IFFNIPLVAHLGLYVGV [YJL039C/NUP192] ... category 1
DENGTNSAIANEQEEKS [RPC37] ... category 2

In: Input GGTNEDDFTDAIQFVKE [YCS4] ; output its category
Out: category 2

In: Input TSLKKIKDEIDDPFTKI [SWI1] ; output its category
Out: category 3

###

Protocol: protein stability index of a GFP-peptide fusion (yeast GPS) (PSI 1-4); higher = more stable; sorted into four equal gates, so the index is relative within each strain
Test Conditions: ubr1∆
Provide the recorded protein stability index for the entries that follow.
Answers are plain numbers.

Worked cases, protein stability index given:
ASSPIILEEGSSGMGAF [RPN10] ... 3.14
YVISLSYTDAQDKSKKI [YMR129W/POM152] ... 2.68
DKKVTLITSEMFDAFVS [SIN4] ... 1.28
LPIYDSLMSSQNKLFYI [SIR3] ... 1.38
DKDNPVDSRNETDHKTN [SRB4] ... 3.3

Could you tell me protein stability index for each of these sequences? They are listed below.
1. LKFAVQVDKVTKEKVNG [RPL26A]
2. ISPSAPSKDSFTKYKPA [YAR002W/NUP60]

Out:
[3.01, 2.98]

###

Protocol: protein stability index of a GFP-peptide fusion (yeast GPS) (PSI 1-4); higher = more stable; sorted into four equal gates, so the index is relative within each strain
Test Conditions: pdr5∆
Please enter 1 where protein stability index is greater than or equal to 3, and 0 where it is lower.

In: Check the entry SRPATTTRNGFMEAQGA [FAS2] : does protein stability index equal or exceed 3?
Out: 0

In: Check the entry LEKKGFSEVYEYNRLKV [LIN1] : does protein stability index equal or exceed 3?
Out: 1

In: Check the entry HSRILPKKALKVKAGVR [RRP43] : does protein stability index equal or exceed 3?
Out: 0

In: Check the entry VPPINCIFNFLQQQTPV [SME1] : does protein stability index equal or exceed 3?
Out: 0

In: Check the entry GAGGLNPFTSATSSTNA [YOR098C/NUP1] : does protein stability index equal or exceed 3?
Out: 0

In: Check the entry HPFGHALVAGIERYPSK [RPL27B] : does protein stability index equal or exceed 3?
Out: 0

In: Check the entry VLYYRDARSSRNFSLAI [PRE4] : does protein stability index equal or exceed 3?
Out: 0

In: Check the entry AHLWQKIHESIVFDICQ [PRP8] : does protein stability index equal or exceed 3?
Out: 0

In: Check the entry KSVEKTMIKKTTLVTRR [SMC3] : does protein stability index equal or exceed 3?
Out: 1

In: Check the entry AYPGKLICPQYGTENKD [CSL4] : does protein stability index equal or exceed 3?
Out: 0

In: Check the entry SGLFVDVKKRTYEAIDV [RPB2] : does protein stability index equal or exceed 3?
Out: 1

In: Check the entry SPTENGVFDPASYAKYL [RPL22A] : does protein stability index equal or exceed 3?
Out: 1

In: Check the entry HEIYGSMPLEQLIPIIL [SRB4] : does protein stability index equal or exceed 3?
Out: 0

In: Check the entry SSEQFNVWDWNNWTSAT [GAL11] : does protein stability index equal or exceed 3?
Out: 1
